Entries and their measured binding signal follow.
- study-target: GST-Rok-C97-191 (Bacillus subtilis subsp. subtilis str. …, UniProt O34857 97-191)
- Sequence: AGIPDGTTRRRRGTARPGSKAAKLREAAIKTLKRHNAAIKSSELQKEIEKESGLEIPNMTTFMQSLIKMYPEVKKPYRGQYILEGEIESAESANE
- assay-summary: protein binding microarray; high values mean tight binding
- condition-set: protein: recombinant; tags: GST (pTH5325, pDEST15-Magic modified); dsDNA, one strand shown
Whole data set: some 33,000 sequences, median “e-score” near -0.038, cut for the highest 2% near 0.33. The full list was thinned out, with the highest values kept by preference.
Use E-score as the unit, but write only the number.

Please review the following examples before continuing.
{"columns": ["seq-text", "study-target", "unit-abbrev", "binding signal"],
 "data": [
  ["ATAGATAT", "GST-Rok-C97-191 (Bacillus subtilis subsp. subtilis str. …, UniProt O34857 97-191)", "E-score", 0.415],
  ["CCAGGTCA", "GST-Rok-C97-191 (Bacillus subtilis subsp. subtilis str. …, UniProt O34857 97-191)", "E-score", -0.0861],
  ["CATAATAA", "GST-Rok-C97-191 (Bacillus subtilis subsp. subtilis str. …, UniProt O34857 97-191)", "E-score", 0.281]
]}

### Prompt Record request: binding signal value, item `GTCAAGTA`
### Response 0.157

### Prompt Record request: binding signal value, item `CAAATATC`
### Response 0.231

### Prompt Record request: binding signal value, item `GAATTCAC`
### Response 0.074

### Prompt Record request: binding signal value, item `AGCGGTAG`
### Response 0.33

### Prompt Record request: binding signal value, item `AGAATGCG`
### Response 0.105

### Prompt Record request: binding signal value, item `AAAATATG`
### Response 0.271

### Prompt Record request: binding signal value, item `CCTACAGA`
### Response 0.064

###

- study-target: GST-Rok-C97-191 (Bacillus subtilis subsp. subtilis str. …, UniProt O34857 97-191)
- Sequence: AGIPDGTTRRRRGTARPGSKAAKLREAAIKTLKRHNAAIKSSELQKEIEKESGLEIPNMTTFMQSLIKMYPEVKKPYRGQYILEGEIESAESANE
- assay-summary: protein binding microarray; Rok is a gene silencer of Bacillus subtilis; high values mean tight binding
- condition-set: protein: recombinant; tags: GST (pTH5325, pDEST15-Magic modified); dsDNA, one strand shown
Over roughly 33,000 sequences, “e-score” has its median near -0.038; the highest 2% begin near 0.33. The entries come from a sample that favours the highest values as a whole.
Consider the cut-off 0.3 E-score. If the recorded binding signal is strictly smaller, the label is Fulfilled; if not, the label is Not fulfilled.

{"columns": ["seq-text", "class-assignment"],
 "data": [
  ["CTATATGC", "Fulfilled"],
  ["CTATCGTA", "Not fulfilled"],
  ["CCAGAAAG", "Fulfilled"],
  ["CCTACTAA", "Fulfilled"],
  ["ACTACTCT", "Fulfilled"],
  ["GTGCTAGA", "Fulfilled"],
  ["AATAGCTG", "Fulfilled"],
  ["AGATATAC", "Fulfilled"]
]}

### Prompt I'd appreciate it if you could check whether `TAATAGTA` has binding signal smaller than 0.3 E-score.
### Response Not fulfilled

### Prompt I'd appreciate it if you could check whether `CAGTTATG` has binding signal smaller than 0.3 E-score.
### Response Fulfilled

### Prompt I'd appreciate it if you could check whether `TAATAGCA` has binding signal smaller than 0.3 E-score.
### Response Fulfilled

### Prompt I'd appreciate it if you could check whether `AAATAGCC` has binding signal smaller than 0.3 E-score.
### Response Fulfilled

// provenance: paper PMC6212790
